Origin of measurements: paper PMC3185947

Test: clinical;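 also: pharmacokinetic parameters derived by non-compartmental analysis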
Details: human, in vivo, 250 mg
READOUT_TYPE: Tmax (h)
Respond numerically; units are h and should not be typed.

Lookup: If you can, please state the reported Tmax value of C#Cc1cccc(Nc2ncnc3cc(OCCOC)c(OCCOC)cc23)c1 .
Found: 2.1

----------
Assay: clinical
Details: human, in vivo, 350 mg
READOUT_TYPE: Cmax

Lookup: If you can, please state the reported Cmax value of C#Cc1cccc(Nc2ncnc3cc(OCCOC)c(OCCOC)cc23)c1 [erlotinib] .
Found: 1780 ng/mL

----------
Assay: clinical
Conditions: human, in vivo, 350 mg
READOUT_TYPE: Tmax
Quick note: number first, unit second.

Lookup: If you can, please state the reported Tmax value of C#Cc1cccc(Nc2ncnc3cc(OCCOC)c(OCCOC)cc23)c1 .
Found: 3.5 h
